- TGT: KRas G12C (Homo sapiens, UniProt P01116, G12C)
- Sequence (P01116 1-169 isoform P01116-2 G12C): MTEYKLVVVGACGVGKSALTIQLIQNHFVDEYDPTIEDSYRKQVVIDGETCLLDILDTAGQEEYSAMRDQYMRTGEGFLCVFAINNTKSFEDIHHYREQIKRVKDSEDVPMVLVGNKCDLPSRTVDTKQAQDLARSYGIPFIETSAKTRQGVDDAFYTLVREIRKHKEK
- PROCEDURE SUMMARY: biochemical;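 further: binding to KRas assessed by TR-FRET displacement after one hour incubation at room temperature, potency fitted from percent-of-control values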
ENDPOINT: IC50 (µM)

Examples with answers:
COMPOUND	TGT	ENDPOINT	UNIT SYMBOL	MEASURED VALUE
O=C1NCC2(CCN(c3nc(OCC45CCCN4CCC5)nc4c(F)c(-c5cccc6cccc(F)c56)ncc34)CC2)N1	KRas G12C (Homo sapiens, UniProt P01116, G12C)	IC50	µM	9.88
NC(=O)c1cc2n(n1)CCCN(c1nc(OCC34CCCN3CCC4)nc3c(F)c(-c4cccc5cccc(F)c45)ncc13)C2	KRas G12C (Homo sapiens, UniProt P01116, G12C)	IC50	µM	1.38
Oc1cccc2c1CN(c1nc(OCC34CCCN3CCC4)nc3c(F)c(-c4cccc5cccc(F)c45)ncc13)C2	KRas G12C (Homo sapiens, UniProt P01116, G12C)	IC50	µM	19.8

1 = Fc1c(-c2cccc3cccc(F)c23)ncc2c(NCCc3c[nH]nn3)nc(OCC34CCCN3CCC4)nc12
2 = Fc1c(-c2cccc3cccc(F)c23)ncc2c(N3CC=CCC3)nc(OCC34CCCN3CCC4)nc12
-- ask Which value of IC50 is smaller, the one for 1 or the one for 2 ? Respond using the label that marks the chosen record.
-- reply 2

I = Fc1c(-c2cccc3cccc(F)c23)ncc2c(NCCc3ccn[nH]3)nc(OCC34CCCN3CCC4)nc12
II = O=C1CC2(CCCN(c3nc(OCC45CCCN4CCC5)nc4c(F)c(-c5cccc6cccc(C(F)F)c56)ncc34)C2)N1 (stereo not drawn)
III = Fc1c(-c2cccc3cccc(Cl)c23)ncc2c(N3CC(n4ccnc4)C3)nc(OCC34CCCN3CCC4)nc12
IV = O=C1NC(=O)C2(CCCN(c3nc(OCC45CCCN4CCC5)nc4c(F)c(-c5cccc6cccc(F)c56)ncc34)C2)N1 (stereo not drawn)
-- ask Rank descending by IC50. Submit the labels in the order that the ranking request calls for.
-- reply I, II, III, IV

I = Cc1ccc(O)cc1-c1ncc2c(N3CCCC(C)(O)C3)nc(OCC34CCCN3CCC4)nc2c1F (stereo not drawn)
II = C#Cc1c(F)ccc2cccc(-c3ncc4c(N5CCC[C@@](C)(O)C5)nc(OC[C@@]56CCCN5C[C@H](F)C6)nc4c3F)c12
-- ask Which entry has a larger number for IC50, I or II ? Please indicate the selected item by its label.
-- reply I
(I: 2.41 µM, II: 0.035 µM)

a = O=C1NC2(CCCN(c3nc(OCC45CCCN4CCC5)nc4c(F)c(-c5cccc6cccc(F)c56)ncc34)C2)CO1 (stereo not drawn)
b = O=C1CC2(CCCN(c3nc(OCC45CCCN4CCC5)nc4c(F)c(-c5cccc6cccc(F)c56)ncc34)C2)N1 (stereo not drawn)
c = O=S1(=O)CC[C@H](CNc2nc(OCC34CCCN3CCC4)nc3c(F)c(-c4cccc5cccc(F)c45)ncc23)N1
d = CNC(=O)c1cc2n(n1)CCCN(c1nc(OCC34CCCN3CCC4)nc3c(F)c(-c4cccc5cccc(F)c45)ncc13)C2
e = O=C1NCC2(CCCN(c3nc(OCC45CCCN4CCC5)nc4c(F)c(-c5cccc6cccc(CO)c56)ncc34)C2)N1 (stereo not drawn)
-- ask Hey, can you sort those compounds up there by IC50, smallest first? Use the labels to give the ranking in the order requested.
-- reply b, e, d, a, c

1 = OCC12CC(Nc3nc(OCC45CCCN4CCC5)nc4c(F)c(-c5cccc6cccc(F)c56)ncc34)(C1)C2
2 = C[C@@H]1C[C@@H](O)CN(c2nc(OCC34CCCN3CCC4)nc3c(F)c(-c4cccc5cccc(F)c45)ncc23)C1
3 = NS(=O)(=O)CC1CCCN(c2nc(OCC34CCCN3CCC4)nc3c(F)c(-c4cccc5cccc(Cl)c45)ncc23)C1 (stereo not drawn)
4 = Fc1c(-c2cccc3cccc(Cl)c23)ncc2c(N3CCCC(n4cccn4)C3)nc(OCC34CCCN3CCC4)nc12 (stereo not drawn)
-- ask Rank order required: IC50, descending. Present the labels in the sequence the task asks for.
-- reply 2, 4, 1, 3
(2: 27.5 µM, 4: 4.25 µM, 1: 2.15 µM, 3: 0.075 µM)

I = O=S1(=O)CC(CNc2nc(OCC34CCCN3CCC4)nc3c(F)c(-c4cccc5cccc(F)c45)ncc23)C1
II = O=c1cc(CNc2nc(OCC34CCCN3CCC4)nc3c(F)c(-c4cccc5cccc(F)c45)ncc23)[nH][nH]1
-- ask Name the one with the greater IC50 value, either I or II as given. Your answer should be the label of the entry you select.
-- reply II

I = NC(=O)C(O)CNc1nc(OCC23CCCN2CCC3)nc2c(F)c(-c3cccc4cccc(Cl)c34)ncc12 (stereo not drawn)
II = N#Cc1cccc2cccc(-c3ncc4c(N5CCCC6(CC(=O)N6)C5)nc(OCC56CCCN5CCC6)nc4c3F)c12 (stereo not drawn)
III = CC1(O)CCCCN(c2nc(OCC34CCCN3CCC4)nc3c(F)c(-c4cccc5cccc(F)c45)ncc23)C1 (stereo not drawn)
-- ask Ascending by IC50, please. Provide your answer as the labels ordered per the instruction.
-- reply II, I, III

A = Cn1cc(CNc2nc(OCC34CCCN3CCC4)nc3c(F)c(-c4cccc5cccc(F)c45)ncc23)ccc1=O
B = CCc1c(F)ccc2cc(O)cc(-c3ncc4c(N5CCN6C(=O)NC(=O)C6C5)nc(OC[C@@]56CCCN5C[C@H](F)C6)nc4c3F)c12 (stereo partly drawn)
-- ask Of the two listed items, which has the higher IC50? First: A Second: B Could you answer with the label of the item you picked?
-- reply A
(A: 2.51 µM, B: 0.016 µM)

All values here come from patent US12398154B2.
